Sourced from patent US20240018252A1

target: human CD3 (huCD3ed) (human) (UniProt P07766); assay: Biacore SPR, bispecific hIgG2dA format, 37 C; CD3 antigen not given
Sequence (P07766 23-126, chain 1 of 2): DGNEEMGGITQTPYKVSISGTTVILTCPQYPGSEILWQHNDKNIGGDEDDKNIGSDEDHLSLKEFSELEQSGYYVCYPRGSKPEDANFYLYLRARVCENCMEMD
Sequence (P04234 22-105, chain 2 of 2, further chain): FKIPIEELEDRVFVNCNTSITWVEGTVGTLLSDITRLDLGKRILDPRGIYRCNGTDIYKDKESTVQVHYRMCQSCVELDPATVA
Known t½ of a selection of binders
Kindly answer with a numeric value in s, unit omitted.

# Binder, Scale unit, Quantitative readout
measured = [
    ("h25A8-C8_Ep (bispecific antibody, part only; not given: anti-EpCam arm, constant regions, V domains shown, not shown: another chain or arm of the molecule; a dimerising Fc or GST; small tags and cut ends) VH: EVQLVESGGGLVKPGGSLRLSCAASGFTFNTYAMNWVRQAPGKGLEWVGRIRSKINNYATYYAESVKGRFTISRDDSKNTLYLQMNSLKTEDTAVYYCVRHETLRSGISWFASWGQGTLVTVSS VL: QAVVTQEPSLTVSPGGTVTLTCRSSTGAVTTSNYANWVQQKPGQAPRGLIGGTNTRAPGTPARFSGSLLGGKAALTLSGAQPEDEAEYYCVLWYNNHWVFGGGTKLTVL", "s", 22.8),
]

Given the binder h2B4-hnpsTK_Ep (bispecific antibody, part only; not given: anti-EpCam arm, constant regions, V domains shown, not shown: another chain or arm of the molecule; a dimerising Fc or GST; small tags and cut ends) VH: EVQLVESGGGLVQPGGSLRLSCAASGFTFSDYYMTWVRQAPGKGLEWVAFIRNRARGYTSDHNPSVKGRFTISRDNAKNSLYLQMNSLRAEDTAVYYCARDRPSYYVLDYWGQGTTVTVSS VL: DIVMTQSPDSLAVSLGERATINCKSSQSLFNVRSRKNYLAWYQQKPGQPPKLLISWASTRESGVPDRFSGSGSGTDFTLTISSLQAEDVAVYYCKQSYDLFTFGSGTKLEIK , what is its reported t½?
29.4

Given the binder h25A8-B13_Ep (bispecific antibody, part only; not given: anti-EpCam arm, constant regions, V domains shown, not shown: another chain or arm of the molecule; a dimerising Fc or GST; small tags and cut ends) VH: EVQLVESGGGLVKPGGSLRLSCAASGFTFSTYAMNWVRQAPGKGLEWVGRIRSKINNYATYYAESVKGRFTISRDDSKNTLYLQMNSLKTEDTAVYYCVRHETLRSGISWFASWGQGTLVTVSS VL: QAVVTQEPSLTVSPGGTVTLTCRTSTGAVTTSNYANWVQQKPGQAPRGLIGGTNTRAPGTPARFSGSLLGGKAALTLSGAQPEDEAEYYCVLWYNNHWVFGGGTKLTVL , what is its reported t½?
31.8

Given the binder h25A8-B12_Ep (bispecific antibody, part only; not given: anti-EpCam arm, constant regions, V domains shown, not shown: another chain or arm of the molecule; a dimerising Fc or GST; small tags and cut ends) VH: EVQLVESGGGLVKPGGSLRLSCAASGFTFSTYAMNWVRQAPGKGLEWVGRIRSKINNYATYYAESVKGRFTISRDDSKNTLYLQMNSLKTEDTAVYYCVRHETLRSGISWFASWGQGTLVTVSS VL: QAVVTQEPSLTVSPGGTVTLTCRASTGAVTTSNYANWVQQKPGQAPRGLIGGTNTRAPGTPARFSGSLLGGKAALTLSGAQPEDEAEYYCVLWYNNHWVFGGGTKLTVL , what is its reported t½?
28.8
